meta.source: ChEMBL document CHEMBL4825673

Tested on: Pseudomonas aeruginosa
Experiment: Antibacterial activity against Pseudomonas aeruginosa PAE15-14 assessed as inhibition of bacterial growth incubated for 24 hrs by broth microdilution method
Type: functional
Settings: read-out: MIC100
OBSERVABLE: MIC (µg/mL)
Express it in µg/mL; write the number only.

CC[C@H](C)CCCCC(=O)N[C@@H](CCN)C(=O)N[C@H](C(=O)N[C@@H](CCN)C(=O)N[C@H]1CCNC(=O)[C@H]([C@@H](C)O)NC(=O)[C@H](CCN)NC(=O)[C@H](CCN)NC(=O)[C@H](CC(C)C)NC(=O)[C@@H](Cc2ccccc2)NC(=O)[C@H](CCN)NC1=O)[C@@H](C)OC(=O)[C@@H](N)Cc1ccc(O)cc1: 0.25

Noted for "CCCCCc1ccc(CN[C@@H](CCN)C(=O)N[C@H](C(=O)N[C@@H](CCN)C(=O)N[C@H]2CCNC(=O)[C@H]([C@@H](C)O)NC(=O)[C@H](CCN)NC(=O)[C@H](CCN)NC(=O)[C@H](CC(C)C)NC(=O)[C@@H](Cc3ccccc3)NC(=O)[C@H](CCN)NC2=O)[C@@H](C)O)cc1" : its MIC reads 0.5
